# EXPERIMENTAL PROTOCOL: Food effect study: single oral 450 mg MNTX fasted vs high-fat breakfast, 2-period crossover
# Format: in vivo, human
# CONDITIONS: both sexes, human, plasma, oral, 450 mg, 450 mg Single-Dose Fed, median
MEASURED ATTRIBUTE: Tmax (h)
Dear colleague, please return just the value in h, with no unit written.

Problem: Entry C[N@+]1(CC2CC2)CC[C@]23c4c5ccc(O)c4O[C@H]2C(=O)CC[C@@]3(O)[C@H]1C5.[Br-] [MNTX] : reported Tmax = ?
Result: 4

---

# EXPERIMENTAL PROTOCOL: Comparative bioavailability: single oral 150, 300, 450 mg MNTX tablets vs 12 mg SC injection, crossover
# Type: in vivo, human
# CONDITIONS: human, plasma, sc, 12 mg, MNTX 12 mg SC Injection; read-out: AUC0-t, Geometric LSM
MEASURED ATTRIBUTE: AUC(0-t) (ng·h/mL)
Your answer is read as ng·h/mL, so omit the unit and give the number.

Problem: Sample C[N@+]1(CC2CC2)CC[C@]23c4c5ccc(O)c4O[C@H]2C(=O)CC[C@@]3(O)[C@H]1C5.[Br-] — what was its AUC(0-t)?
Result: 264

Source: patent US20190231771A1
